Tested on: HCC1569;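 note: TDF is a line of transformed human dermal fibroblasts of mesenchymal origin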
PROTOCOL_TEXT: H1.0 immunofluorescence intensity relative to DMSO (% of DMSO); higher = stronger H1.0 induction, active = 140 or more
MEASUREMENT_CONTEXT: concentration: 10 µM; 24 h
Please go through the items and note down their H1.0 immunofluorescence intensity.
Numbers only.

• CC(C)(C)NCC(O)COc1nsnc1N1CCOCC1.O=C(O)C=CC(=O)O [(S)-Timolol maleate] = 97.9

Return reported H1.0 immunofluorescence intensity values for all items listed beneath this line.
1. CC(C)c1[nH]n(-c2c(Cl)cccc2Cl)c2nc(Cc3ccc(OCCO)cc3)nc(=O)c1-2
2. C#CC(N)CCC(=O)O (configuration not stated)
3. O=C1c2c(O)ccc(O)c2C(=O)c2c(NCCNCCO)ccc(NCCNCCO)c21
4. CCCCCC(O)C=CC=CCCCCCCCCCC(=O)O (configuration not stated)
5. CCCCCOc1ccccc1C(O)CC#CCCCC(=O)OC (configuration not stated)
6. CC(=O)ONC1=c2ccccc2=NC1=C1C(=O)Nc2cc(Br)ccc21
7. CCN(CC)CCCCNc1ncc2cc(-c3c(Cl)cccc3Cl)c(NC(=O)NC(C)(C)C)nc2n1

143
84.4
120
96.8
89.2
188
115
